Test: Absorption spectra (absorption maxima) of dyes in organic solvents
Type: physicochemical
Settings: Toluene
Procedure: All commercially available compounds were purchased from Aldrich Chemical Co., GFS Chemicals, Strem Chemicals, Acros Organics, Alfa Aesar, and Advanced Chemtech and used as received, except for p-toluenesulfonyl hydrazide, which was recrystallized from methanol. […] TLC analyses were performed on EMD Chemicals Silica Gel 60 F254 glass plates (250 μm thickness). ^1H NMR and ^13C NMR spectra were recorded on Bruker Avance 300 MHz, 500 MHz, or 600 MHz spectrometers. […]
property.label: λabs (maximum absorption) (nm)
Note: unit nm is implicit; provide only the numeric part.

[[record]]
molecule = "CC(=O)c1c2c(cc3ccc(N(C)C)cc13)CCC2"
number = 376


Q: # lookup: λabs (maximum absorption) of CCC(=O)c1ccc2cc(N(C)C)ccc2c1 [Prodan, reference compound]
Ans: 346

Q: Name the reported λabs (maximum absorption) value associated with the molecule CC(=O)c1c2c(cc3c(N(C)C)cccc13)CCC2
Ans: 322

Q: Any idea what its λabs (maximum absorption) is? The molecule is CC(=O)c1c2c(cc3cc(N(C)C)ccc13)CCC2
Ans: 368
